Below, each entry is listed alongside its reported pIC50.
# SYSTEM: human CYP4A11 (Homo sapiens, UniProt Q02928)
# Sequence (Q02928 5-519): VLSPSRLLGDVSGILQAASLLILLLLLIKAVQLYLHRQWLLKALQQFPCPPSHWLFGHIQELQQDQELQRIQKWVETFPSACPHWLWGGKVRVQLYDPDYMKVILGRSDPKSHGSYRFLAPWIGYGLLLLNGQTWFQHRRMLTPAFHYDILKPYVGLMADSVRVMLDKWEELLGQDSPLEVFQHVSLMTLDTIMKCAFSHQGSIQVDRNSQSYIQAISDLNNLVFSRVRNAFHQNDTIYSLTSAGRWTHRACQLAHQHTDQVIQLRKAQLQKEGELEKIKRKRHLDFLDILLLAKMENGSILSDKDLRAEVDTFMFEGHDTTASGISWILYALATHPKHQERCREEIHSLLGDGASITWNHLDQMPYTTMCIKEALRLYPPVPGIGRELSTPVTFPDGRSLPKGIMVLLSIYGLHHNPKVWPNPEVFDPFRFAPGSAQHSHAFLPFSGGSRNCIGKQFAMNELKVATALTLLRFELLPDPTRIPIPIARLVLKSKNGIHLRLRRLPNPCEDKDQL
Expect pIC50 as a plain number equal to -log10 of the molar concentration.

[
  {
    "MOLECULE": "CC(C)NC(=O)CC(=O)N1CCC[C@@H](COc2ccc(-c3ccn[nH]3)nc2)C1",
    "OUTCOME_MEASURE": "pIC50",
    "ASSAY_RESULT": 5.74
  }
]

Proceeding to the next molecule to report its pIC50.
So what's the measured pIC50 for this one? `CC(C)S(=O)(=O)N1CCC[C@H](COc2ccc(-c3ccn[nH]3)nc2)C1`
7.33

----------
# SYSTEM: human CYP4A11 (Homo sapiens, UniProt Q02928)
# Construct: host or cells: Escherichia coli (membrane fraction)
# Sequence (Q02928 5-519): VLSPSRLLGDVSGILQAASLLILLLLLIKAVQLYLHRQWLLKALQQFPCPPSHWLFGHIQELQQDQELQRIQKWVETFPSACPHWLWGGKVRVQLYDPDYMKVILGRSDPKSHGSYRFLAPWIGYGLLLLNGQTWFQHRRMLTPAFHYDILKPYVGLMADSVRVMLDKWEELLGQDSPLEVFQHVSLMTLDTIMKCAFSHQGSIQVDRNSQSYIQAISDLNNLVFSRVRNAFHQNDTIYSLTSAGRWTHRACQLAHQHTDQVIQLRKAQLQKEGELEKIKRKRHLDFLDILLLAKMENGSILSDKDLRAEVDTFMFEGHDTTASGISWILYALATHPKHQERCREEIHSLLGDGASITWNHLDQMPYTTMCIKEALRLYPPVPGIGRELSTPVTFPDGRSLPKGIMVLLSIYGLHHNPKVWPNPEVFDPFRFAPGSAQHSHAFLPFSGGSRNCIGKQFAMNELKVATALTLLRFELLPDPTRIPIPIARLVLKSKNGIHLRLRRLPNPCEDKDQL
# MEASUREMENT_NOTES: CYP4A11 inhibition test (Test Example 1)
# Format: biochemical
# CONDITIONS: Escherichia coli membrane fraction expressing human CYP4A11, 60 μM luciferine derivative, room temperature 60 minutes, luminescence
OUTCOME_MEASURE: pIC50
Expect pIC50 as a plain number equal to -log10 of the molar concentration.

[
  {
    "COMPOUND": "O=C(NCC(=O)N1CCC[C@@H](COc2ccc(-c3ccn[nH]3)nc2)C1)OCc1ccccc1 [Example 3-17]",
    "SYSTEM": "human CYP4A11 (Homo sapiens, UniProt Q02928)",
    "ASSAY_RESULT": 7.11
  },
  {
    "COMPOUND": "O=C(C1CCOCC1)N1CCC[C@@H](COc2ccc(-c3ccn[nH]3)nc2)C1 [Example 3-9]",
    "SYSTEM": "human CYP4A11 (Homo sapiens, UniProt Q02928)",
    "ASSAY_RESULT": 5.70
  },
  {
    "COMPOUND": "COc1ccc(COc2ccc(-c3ccn[nH]3)nc2)cc1S(C)(=O)=O [Example 25-10]",
    "SYSTEM": "human CYP4A11 (Homo sapiens, UniProt Q02928)",
    "ASSAY_RESULT": 5.96
  }
]

So what's the measured pIC50 for this one? CNC(=O)N1CCC[C@H](COc2ccc(-c3ccn[nH]3)nc2)C1 [Example 6-4]
5.96

Please answer likewise for CC(=O)N(C)CC12CC(COc3ccc(-c4ccn[nH]4)nc3)(C1)C2 [Example 22-1]
6.41
